Data origin, for the record: the supplement of paper PMC6555819

Would you kindly list PBM binding z-score for each of these sequences?
- System: PPARa:RXRa (NR concentration 270 nM, RXRa partner concentration 90 nM)
- MEASUREMENT DESCRIPTION: PBM binding z-score (relative to random genomic background probes); higher = stronger binding; sequences stand for … in GC…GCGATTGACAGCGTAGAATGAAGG

>  <MACROMOLECULE SEQUENCE>
ATATGTAGGTTTGCTGGGGTCATTCAGACTAGGC

>  <PBM binding z-score>
4.53

$$$$
>  <MACROMOLECULE SEQUENCE>
TCTGCTAGGTCAACGATGGTCAACTAATCTGCTA

>  <PBM binding z-score>
3.3

$$$$
>  <MACROMOLECULE SEQUENCE>
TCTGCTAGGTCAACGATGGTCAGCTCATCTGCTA

>  <PBM binding z-score>
3.34

$$$$
>  <MACROMOLECULE SEQUENCE>
TCATATAGGTAAAAGGTAAAAGTCGGTGTGGTAA

>  <PBM binding z-score>
4.59

$$$$
>  <MACROMOLECULE SEQUENCE>
TCTTGTAGATCAATCAGGTTAAGAAAGCCTGAGT

>  <PBM binding z-score>
0.703

$$$$
>  <MACROMOLECULE SEQUENCE>
TCTATTAGTTGATTAGGGCCACCGAAACAGCGGA

>  <PBM binding z-score>
0.786

$$$$

// PBM binding z-score value for TCTTGTAGATCAATAGAGGTTAAGAGAGTGCGCT : 1.97

====

- Tested on: RARb homodimer (NR concentration 270 nM)
- MEASUREMENT DESCRIPTION: PBM binding z-score (relative to random genomic background probes); higher = stronger binding; sequences stand for … in GC…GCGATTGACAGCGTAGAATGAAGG
Note to self: class labels come from recorded PBM binding z-score, ranges listed here: band A = under 1, band B = from 1 up to 2, band C = 2 and over

Sample answers from the record:
>  <MACROMOLECULE SEQUENCE>
GCGACTGGCGCATCAGCAGGTTACCATAACTTAA

>  <MEASURED TARGET>
RARb homodimer (NR concentration 270 nM)

>  <CLASS>
band A

$$$$
>  <MACROMOLECULE SEQUENCE>
GTACCAAGGTGAATAGGTCGTTGACGAGTAGGCG

>  <MEASURED TARGET>
RARb homodimer (NR concentration 270 nM)

>  <CLASS>
band B

$$$$
>  <MACROMOLECULE SEQUENCE>
TCATATAGGTAAAAGGTTAAAGTCGGTGTGGTAA

>  <MEASURED TARGET>
RARb homodimer (NR concentration 270 nM)

>  <CLASS>
band C

$$$$
>  <MACROMOLECULE SEQUENCE>
ATACCAAGGTGATCGTGAGGTAGTTGATACTAAC

>  <MEASURED TARGET>
RARb homodimer (NR concentration 270 nM)

>  <CLASS>
band A

$$$$
>  <MACROMOLECULE SEQUENCE>
CCGCCTGGGGCATAAGGTTACCATAAGCCAGCCC

>  <MEASURED TARGET>
RARb homodimer (NR concentration 270 nM)

>  <CLASS>
band B

$$$$

Into which bin does this sequence go? CGATCTAGGTCATCCAGGACAGTGAATACATTGA
band C

Into which bin does this sequence go? AGAATGAGGTTATTAAGATGAGGGAATTGCGGTC
band A

Into which bin does this sequence go? TAGCCTAGGTCATGCCGGCCAGTATAGTGTCGGC
band C

Into which bin does this sequence go? GTACCAAGGTGAATAGGTCGTTGGTGAGTAGGCG
band B

Into which bin does this sequence go? CCTGCTAGGTAAATGGTCAGCTAAAGCAGCTCGC
band A

Into which bin does this sequence go? CGTCCAAGGTCATAGGAGGTCTGTGAAGACAGAT
band C

Into which bin does this sequence go? TGAATGAGGTTACAAGATCAGGGAACGTTGCAAA
band A

Into which bin does this sequence go? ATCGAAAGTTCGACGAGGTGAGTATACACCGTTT
band B

Into which bin does this sequence go? ATCGAAAGTTCGAGGTGAGTATAGAGAAAGGGAA
band B

Into which bin does this sequence go? CGTCAAAGTTCAACTAAGGTAACGTACAGCACGC
band C

====

- Test system: RARa:RXR (NR concentration 270 nM, RXRa partner concentration 90 nM)
- MEASUREMENT DESCRIPTION: PBM binding z-score (relative to random genomic background probes); higher = stronger binding; sequences stand for … in GC…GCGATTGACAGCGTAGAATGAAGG
PROPERTY MEASURED: PBM binding z-score
Give bare numbers.

In the examples that follow, each entry is paired with its recorded PBM binding z-score.
>  <MACROMOLECULE SEQUENCE>
CAGCCTAGGTCAGGACCAGTATAGGAGGAACGTT

>  <MEASURED TARGET>
RARa:RXR (NR concentration 270 nM, RXRa partner concentration 90 nM)

>  <PBM binding z-score>
0.885

$$$$
>  <MACROMOLECULE SEQUENCE>
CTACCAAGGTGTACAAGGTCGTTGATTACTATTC

>  <MEASURED TARGET>
RARa:RXR (NR concentration 270 nM, RXRa partner concentration 90 nM)

>  <PBM binding z-score>
1.47

$$$$

Respectfully, I request PBM binding z-score for each entry included below.
1. ATCTCTAGGTACCAAGTTCAGTGAAAGAGAGGAC
2. CGTCCAAGGTCAAAGGTCAGTGAGGAGATGACGG
3. ACTAGTTGGTCAGCTGAGGTCCCACACAATTCGG

1. 0.711
2. 8.87
3. 0.479

Respectfully, I request PBM binding z-score for each entry included below.
1. ATATGAAGGTTAGCTGGGGTCATTCAGACTAGGC
2. ACTAGCAGGCCAGGGGTCACTCAAGATTAGTCCG
3. CCTTCCGGGTCACGAGGTTATAGCACGACGAGCG

1: 5.87; 2: 5.58; 3: 5.82

RARa:RXR (NR concentration 270 nM, RXRa partner concentration 90 nM) PBM binding z-score of TCTTTTAGTTGAAGGGCAACCGACGAGTCCGTTT is 0.383

====

- Test system: PPARg:RXRa IVT, anti-PPARg (NR concentration 270 nM, RXRa partner concentration 90 nM)
- MEASUREMENT DESCRIPTION: PBM binding z-score (relative to random genomic background probes); higher = stronger binding; sequences stand for … in GC…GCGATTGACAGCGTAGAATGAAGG
Would you kindly list PBM binding z-score for each of these sequences?

In the examples that follow, each entry is paired with its recorded PBM binding z-score.
>  <MACROMOLECULE SEQUENCE>
CTACCAAGGTGAAGAAGGTCGTTGATTACTATTC

>  <PROPERTY MEASURED>
PBM binding z-score

>  <VALUE REPORTED>
1.84

$$$$
>  <MACROMOLECULE SEQUENCE>
TCTAGCAGGCCAGAGTGTCACTCAAGAGGTACGG

>  <PROPERTY MEASURED>
PBM binding z-score

>  <VALUE REPORTED>
0.187

$$$$
>  <MACROMOLECULE SEQUENCE>
AGAATGCGGTTACCAAAGATCAGGGAAACGCTTG

>  <PROPERTY MEASURED>
PBM binding z-score

>  <VALUE REPORTED>
-0.0394

$$$$

Respectfully, I request PBM binding z-score for each entry included below.
1. CCGACTGGGGCAGACAGGTTACCATACCATCCGG
2. ACTTACGGGTCAACGAGGTTATCGCACGCGTATA
3. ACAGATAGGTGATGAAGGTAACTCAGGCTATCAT
4. TCTATGAGTTGATTAGGGCAACCGAAACAGCGGA
5. TCCCGGAGGACACGAAGGTCAGAGCTTTCCAGAG

[1.47, 4.2, 0.996, 1.19, 0.734]

====

- Tested on: PPARg homodimer (NR concentration 180 nM)
- MEASUREMENT DESCRIPTION: PBM binding z-score (relative to random genomic background probes); higher = stronger binding; sequences stand for … in GC…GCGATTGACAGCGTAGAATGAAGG
Would you kindly list PBM binding z-score for each of these sequences?
Give bare numbers.

In the examples that follow, each entry is paired with its recorded PBM binding z-score.
>  <MACROMOLECULE SEQUENCE>
ACTAGTTGGTCAGGTGAGGTCACACACAATTCGG

>  <VALUE REPORTED>
3.1

$$$$
>  <MACROMOLECULE SEQUENCE>
CCTACTGGGCCATGCAGAGGTCATTGATCATATG

>  <VALUE REPORTED>
2.69

$$$$
>  <MACROMOLECULE SEQUENCE>
CGTCCAAGTTCAACTAAGGTAACGTAAAGCACGC

>  <VALUE REPORTED>
1.83

$$$$
>  <MACROMOLECULE SEQUENCE>
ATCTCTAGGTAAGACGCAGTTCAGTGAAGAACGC

>  <VALUE REPORTED>
0.0862

$$$$
>  <MACROMOLECULE SEQUENCE>
TAGCCTAGGTCATGCGGGCTAGTATAGTGTCGGC

>  <VALUE REPORTED>
0.331

$$$$

Respectfully, I request PBM binding z-score for each entry included below.
1. CCTAGTTGGTCCAGGTCACACACGCTATAGGTAC
2. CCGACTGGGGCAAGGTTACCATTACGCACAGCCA
3. TCTGCCAGGTCAACGATGGTCAGCTAATCTGCTA
4. TCTAGTTGGTCAAAGGTCCCACACTCGAAATGCG
5. CCGAATGGGGCAGAAAGGTTACCATACCATCCGG
6. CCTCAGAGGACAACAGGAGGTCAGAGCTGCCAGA
7. ACAGACACGTGATGAAGGTAACTCAGGCTATCAT
8. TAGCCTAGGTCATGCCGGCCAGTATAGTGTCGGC

2.22
0.706
1.11
1.16
0.818
1.69
0.142
0.237

Respectfully, I request PBM binding z-score for each entry included below.
1. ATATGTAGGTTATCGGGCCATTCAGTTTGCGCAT
2. TCTCGGAGGACAAGAAGGTCAGAGCTTTCCAGAG
3. CGAACGAGGGCATGAGTTCATAGCAAATGCCGAT
4. CCTATTACTTGACCATAAGGGCAACCGAAGCTCG
5. TCTCGGAGAACACGAAGGTCAGAGCTTTCCAGAG

1.89
0.686
0.292
1.41
0.419

Respectfully, I request PBM binding z-score for each entry included below.
1. ATCTCTAGGTAACAAGTTCAGCGAAAGAGAGGAC
2. CCTAGTTGGTCAGGAGTTCACACACCGGATATGA

1. 1.32
2. 2.47
